The following binders are listed with their measured kon values.
Molecular target: T1, cynomolgus IL-36α, truncated (cynomolgus macaque (Macaca fascicularis), UniProt Q9UHA7 14-158 (human entry), limits assumed)
T1 construct: Untagged after removal of the His-SUMO tag; also called cynomolgus IL-36 alpha; cyIL-36alpha
T1 chain: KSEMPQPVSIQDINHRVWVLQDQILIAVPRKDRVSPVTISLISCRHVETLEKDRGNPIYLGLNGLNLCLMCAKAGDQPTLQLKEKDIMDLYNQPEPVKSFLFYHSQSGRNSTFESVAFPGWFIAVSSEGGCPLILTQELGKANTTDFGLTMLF
Experiment: SPR, Biacore, 1:1 Langmuir fit; heads of c3 and c4 printed swapped
Reply numerically in M⁻¹ s⁻¹, unit not repeated.

Reference set, count: 2
1) 144L249B LV9 HV10c (antibody, V domains shown, Humanized) VH: QVQLVQSGAEVKKPGASVKVSCKASGFNIKDTYIYWVRQAPGQGLEWIGRIDPAIGTTRYDPKFQGKATLTADTSTNTAYLELSSLRSEDTAVYYCARYDYSGSSFYFDYWGQGTLVTVSS VL: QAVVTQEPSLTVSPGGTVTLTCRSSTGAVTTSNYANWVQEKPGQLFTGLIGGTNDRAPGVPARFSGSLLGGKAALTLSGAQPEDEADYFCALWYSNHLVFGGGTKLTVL    1.53e+06
2) 144D464A LV11re HV10b (antibody, V domains shown, Humanized) VH: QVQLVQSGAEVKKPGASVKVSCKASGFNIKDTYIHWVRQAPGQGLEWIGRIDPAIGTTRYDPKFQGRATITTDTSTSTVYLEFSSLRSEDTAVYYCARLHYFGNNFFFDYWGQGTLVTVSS VL: QAVVTQEPSLTVSPGGTVTLTCRSSSGAVTTSNYANWVQEKPGQLFAGLIGGTNDRAPGVPARFSGSLLGGKAALTISGAQPEDEAIYFCALWFSNHWVFGGGTKLTVL    369000

Reported kon for 144L249B LV9 HV11 (antibody, V domains shown, Humanized) VH: QVQLVQSGAEVKKPGASVKVSCKASGFNIKDTYIYWVRQAPGQGLEWIGRIDPAIGTTRYDPKFQGKATLTTDTSTNTAYLELSSLRSEDTAVYYCARYDYSGSSFYFDYWGQGTLVTVSS VL: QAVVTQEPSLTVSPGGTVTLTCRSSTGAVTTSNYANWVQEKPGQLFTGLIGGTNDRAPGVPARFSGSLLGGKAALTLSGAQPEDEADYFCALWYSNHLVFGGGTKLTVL : what is it?
1.46e+06

Reported kon for 144L249B (antibody, V domains shown, Mouse monoclonal from hybridoma; mouse IgG heavy and lambda light chain; also called mouse antibody 144L249B) VH: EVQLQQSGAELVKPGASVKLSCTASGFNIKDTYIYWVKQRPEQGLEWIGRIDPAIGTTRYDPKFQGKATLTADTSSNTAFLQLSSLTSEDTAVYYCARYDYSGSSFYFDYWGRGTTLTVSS VL: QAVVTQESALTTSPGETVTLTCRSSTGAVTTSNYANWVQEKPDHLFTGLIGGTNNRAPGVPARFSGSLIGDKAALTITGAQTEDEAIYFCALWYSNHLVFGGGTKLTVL : what is it?
905000
